measured property: melting point (°C)

Take a look at these entries with their results.
compound | units | melting point
CCn1cc(C(=O)O)c(=O)c2cc(F)c(N3CCNCC3)cc21 | °C | 220
COc1ccc(-c2csc(C(C#N)=Cc3ccc(O)cc3)n2)cc1 | °C | 186
CC(C)(C)OC(=O)NCC(=O)O | °C | 88.5
O=C(O)C(O)c1cc(F)cc(F)c1 (centres undefined) | °C | 136

(P) c1ccc2c(c1)CCCN2 [1,2,3,4-tetrahydroquinoline]
(Q) CC(C)NCC(O)COc1cccc2[nH]ccc12 (centres undefined)
Task: Identify the entry with the larger melting point. Options: P and Q Reply with the label of the item you choose.
Output: Q

(a) OB(O)c1cccnc1F
(b) CC(=O)Oc1ccccc1O
Task: Compare melting point: is it lower for a or for b ? Reply with the label of the item you choose.
Output: b
